Origin of measurements: paper PMC11561622

Test system: β5 subunit of Bd20S
Assay: Fluorogenic kinetic assay of enriched Bd20S with PA28α and the β5 substrate Ac-FnKL-amc (50 mM HEPES pH 7.5, 1 mM DTT), no preincubation stated, rate of amc release read between 60 and 90 min, 8 µL volume.
Format: biochemical
Settings: n = 3
value type: IC50
Field: value (include unit after the number)

The compound CCCCCC(=O)N[C@H](C(=O)N[C@@H](CCS(C)(=O)=O)C(=O)N[C@@H](CC(C)C)C(=O)[C@@]1(C)CO1)C(C)C , tested on β5 subunit of Bd20S, showed IC50 of 27.9 nM

* * *

System: β1 subunit of Bd20S
Assay: Fluorogenic kinetic assay of enriched Bd20S with PA28α and the β1 substrate Ac-nPnD-amc (50 mM HEPES pH 7.5, 1 mM DTT), no preincubation stated, rate of amc release read between 60 and 90 min, 8 µL volume.
Type: biochemical
Conditions: n = 3
pIC50: −log10 of the molar value.
value type: pIC50

Quick note, pIC50 for CCCCCC(=O)N[C@H](C(=O)N[C@@H](CCS(C)(=O)=O)C(=O)N[C@@H](CC(C)C)C(=O)[C@@]1(C)CO1)C(C)C landed at < 5.52
